test system: Streptococcus pneumoniae; experiment: microbe, parasite or virus in culture; format: functional; conditions: ATCC 106 49619
Description: Antibacterial activity against Streptococcus pneumoniae ATCC 106 49619
PROPERTY LABEL: MIC (µg/mL)

>  <SMILES REPR>
CN(C)[C@@H]1C(O)=C(C(N)=O)C(=O)[C@@]2(O)C(O)=C3C(=O)c4c(O)c(NC(=O)CNc5cccnc5)cc(F)c4C[C@H]3C[C@@H]12

>  <PROPERTY LABEL>
MIC

>  <REPORTED VALUE>
0.25

$$$$
>  <SMILES REPR>
COCCNCC(=O)Nc1cc(F)c2c(c1O)C(=O)C1=C(O)[C@]3(O)C(=O)C(C(N)=O)=C(O)[C@@H](N(C)C)[C@@H]3C[C@@H]1C2

>  <PROPERTY LABEL>
MIC

>  <REPORTED VALUE>
0.0156

$$$$
>  <SMILES REPR>
CN(C)[C@@H]1C(O)=C(C(N)=O)C(=O)[C@@]2(O)C(O)=C3C(=O)c4c(O)c(NC(=O)CNc5ccccc5)cc(F)c4C[C@H]3C[C@@H]12

>  <PROPERTY LABEL>
MIC

>  <REPORTED VALUE>
2

$$$$
>  <SMILES REPR>
CN(C)[C@@H]1C(O)=C(C(N)=O)C(=O)[C@@]2(O)C(O)=C3C(=O)c4c(O)c(NC(=O)CN5CCOCC5)cc(F)c4C[C@H]3C[C@@H]12

>  <PROPERTY LABEL>
MIC

>  <REPORTED VALUE>
0.5

$$$$
>  <SMILES REPR>
CN(C)[C@@H]1C(O)=C(C(N)=O)C(=O)[C@@]2(O)C(O)=C3C(=O)c4c(O)c(NC(=O)CN5CC[C@@H](F)C5)cc(F)c4C[C@H]3C[C@@H]12

>  <PROPERTY LABEL>
MIC

>  <REPORTED VALUE>
0.0156

$$$$
>  <SMILES REPR>
CCNCC(=O)Nc1cc(F)c2c(c1O)C(=O)C1=C(O)[C@]3(O)C(=O)C(C(N)=O)=C(O)[C@@H](N(C)C)[C@@H]3C[C@@H]1C2

>  <PROPERTY LABEL>
MIC

>  <REPORTED VALUE>
0.0156

$$$$
>  <SMILES REPR>
CN(C)[C@@H]1C(O)=C(C(N)=O)C(=O)[C@@]2(O)C(O)=C3C(=O)c4c(O)c(NC(=O)CN5CCCC5)cc(F)c4C[C@H]3C[C@@H]12

>  <PROPERTY LABEL>
MIC

>  <REPORTED VALUE>
0.0156

$$$$
>  <SMILES REPR>
CN(C)[C@@H]1C(O)=C(C(N)=O)C(=O)[C@@]2(O)C(O)=C3C(=O)c4c(O)c(NC(=O)CN5CCC5)cc(F)c4C[C@H]3C[C@@H]12

>  <PROPERTY LABEL>
MIC

>  <REPORTED VALUE>
0.0156

$$$$
>  <SMILES REPR>
CN(C)c1cc(NC(=O)CNC(C)(C)C)c(O)c2c1C[C@H]1C[C@H]3[C@H](N(C)C)C(O)=C(C(N)=O)C(=O)[C@@]3(O)C(O)=C1C2=O

>  <PROPERTY LABEL>
MIC

>  <REPORTED VALUE>
0.0156

$$$$

Measured values drawn from ChEMBL document CHEMBL1949621 for this set.
